These data points were gathered from the supplement of paper PMC9942255.

Tested on: Bacillus subtilis DB104 (SP-AmyQ fusion secretion)
Assay: AmyQ secretion efficiency, weighted average sort bin (1 = best secretion, 10 = worst) (bin number (weighted average, 1-10)); higher = lower secretion efficiency
Decide by AmyQ secretion efficiency: equal to or exceeding 4 means yes (1), less means no (0).

Completed entries (count: 4):
MLTKRLLTIYIMLLGLIRRKPGAAQAEEK; yes (1)
MKRFSTAYLLLLGILCSAAVFLIGAPSRALGAEV; no (0)
MKKRLIAPMLLSAASLAFFAQEGSAQAAAY; no (0)
MTMLRKIIGWILLLCIIPLFAFTVIASLKEV; no (0)

Could you please find out whether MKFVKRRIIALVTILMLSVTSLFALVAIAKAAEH has AmyQ secretion efficiency that meets 4 or exceeds it?
yes (1)

Could you please find out whether MLKKIALTLCPAIVGSLLFFTDEDDEEASAHVS has AmyQ secretion efficiency that meets 4 or exceeds it?
yes (1)

Could you please find out whether MKRIRIPMTLALGAALTIAPLSFASLEEN has AmyQ secretion efficiency that meets 4 or exceeds it?
yes (1)

----------
System: Bacillus subtilis DB104 (SP-AmyQ fusion secretion)
Experiment: AmyQ secretion efficiency, weighted average sort bin (1 = best secretion, 10 = worst) (bin number (weighted average, 1-10)); higher = lower secretion efficiency
Value Type: AmyQ secretion efficiency
Quick one: just the number, no unit, thanks!

Completed entries (count: 5):
MRKYTVIASILLSFLSVLRGGHHRSKAFPV; 7.77
MKRIRIPMTLALGAALTIAPLSFHSAEEN; 7.02
MKKVLMAFIICLSLILSVLAAAKAESV; 4.23
MTKKAWFLPLVCVLLISGWLAPAASASDQTT; 2.72
MKNMSCKGVVSVTLFFSFLTIGPLAHAQNS; 1.49

Retrieve AmyQ secretion efficiency on Bacillus subtilis DB104 (SP-AmyQ fusion secretion); query MKKLLAAGIIGLLTVEDDEDDSFAAEK
8.23

Retrieve AmyQ secretion efficiency on Bacillus subtilis DB104 (SP-AmyQ fusion secretion); query MRSYIKVLTMCFLGLILFVPTALAAEE
3.07

----------
System: Bacillus subtilis DB104 (SP-AmyQ fusion secretion)
Experiment: AmyQ secretion efficiency, weighted average sort bin (1 = best secretion, 10 = worst) (bin number (weighted average, 1-10)); higher = lower secretion efficiency
Value Type: AmyQ secretion efficiency
Quick one: just the number, no unit, thanks!

MKLSVKRGTTLTVAAAAMTAKMYATAKGN; 7.06

Please indicate AmyQ secretion efficiency recorded for MKKRLIAPMLLSAASLAFFAMSGSAQMAAY
6.46

Please indicate AmyQ secretion efficiency recorded for MKLSVKFLFIAGVLTVAAAAMTAKMYATAKGN
4.51

Please indicate AmyQ secretion efficiency recorded for MPYLKRGGLLLVTGLFMSLFAVTATASAQTG
1.51

Please indicate AmyQ secretion efficiency recorded for MRMLWRSLALCGLALPCAQAAEP
6.75

Please indicate AmyQ secretion efficiency recorded for MLCVMMLLFSAIASFPVSYQAKDQ
6.1

Please indicate AmyQ secretion efficiency recorded for MKVLLSALLLLLFAFEPSFASGKKL
5.58

----------
Test system: Bacillus subtilis DB104 (SP-AmyQ fusion secretion)
Assay: AmyQ secretion efficiency, weighted average sort bin (1 = best secretion, 10 = worst) (bin number (weighted average, 1-10)); higher = lower secretion efficiency
Recorded AmyQ secretion efficiency determines the group label, using bottom end (below 3), midrange (3 to below 6), top end (6 or more)

MKKFIVFICFFVLFSVHPIAAAAADS; midrange
MGLGKKLSVAVAASFMSLSISLPGVQHAEG; midrange
MKRRTRYKKQVVGILLSLAFVLFVFSFSERHE; top end
MTKKARKLPLVCVLLISGWLAPAASASAQTT; bottom end

Now take the following sequence into account.
Please indicate the class for MPYLKRVLLLLVTGLFMSLFFLIAVTATASAQTG based on its AmyQ secretion efficiency.
bottom end

----------
Tested on: Bacillus subtilis DB104 (SP-AmyQ fusion secretion)
Assay: AmyQ secretion efficiency, weighted average sort bin (1 = best secretion, 10 = worst) (bin number (weighted average, 1-10)); higher = lower secretion efficiency
Decide by AmyQ secretion efficiency: equal to or exceeding 4 means Fulfilled, less means Not fulfilled.

Completed entries (count: 8):
MRSYIKVLTMCFLGLILFVPTKDEPALADNS; Not fulfilled
MLKRTSFVSSLFISSAVLLSILLIASTAHAQSA; Not fulfilled
MKRILFLLSTLLIGIMLLTFAPSAFAKQD; Not fulfilled
MLKKIALTLCPAIVGSLLFFTAPASAHVE; Not fulfilled
MGLGKKLSVAVAASFMSLSISLPGVQAAPR; Not fulfilled
MHLIRAAGAVCLAVVLIAGCRFNEDQHQAEWENT; Fulfilled
MPYLKRVLLLLVTGLFMSLFAVTATKSAQTG; Fulfilled
MKLKKRVSMFLVALTMCGGLFVTPFKAVKT; Fulfilled

Now take the following sequence into account.
Could you please find out whether MKKIVSILFMFGLVMGFSQFQPSTVFAASD has AmyQ secretion efficiency that meets 4 or exceeds it?
Not fulfilled

----------
System: Bacillus subtilis DB104 (SP-AmyQ fusion secretion)
Test: AmyQ secretion efficiency, weighted average sort bin (1 = best secretion, 10 = worst) (bin number (weighted average, 1-10)); higher = lower secretion efficiency
Decide by AmyQ secretion efficiency: equal to or exceeding 4 means True, less means False.

MKLAKRVSALTPSTTLAITLKAKEL; True

Could you please find out whether MRKKRVITCVMAASLTLGSLLRKRKKRASAKED has AmyQ secretion efficiency that meets 4 or exceeds it?
True

Could you please find out whether MKKIWIGMLAAAVLLLMVPKVDLADAA has AmyQ secretion efficiency that meets 4 or exceeds it?
True

Could you please find out whether MAIIIAIIAAVIVIAALITFEEDERNASPG has AmyQ secretion efficiency that meets 4 or exceeds it?
True

Could you please find out whether MRMLWRSLALCGLALTLAPCFVVTPASAQAAEP has AmyQ secretion efficiency that meets 4 or exceeds it?
False

Could you please find out whether MTTKYSKQSKQLLCFMPAAKIEHTQASLL has AmyQ secretion efficiency that meets 4 or exceeds it?
True

----------
Items are presented alongside their recorded AmyQ secretion efficiency.
System: Bacillus subtilis DB104 (SP-AmyQ fusion secretion)
Test: AmyQ secretion efficiency, weighted average sort bin (1 = best secretion, 10 = worst) (bin number (weighted average, 1-10)); higher = lower secretion efficiency
Quick one: just the number, no unit, thanks!

Completed entries (count: 3):
MPYLKRVRKLLVTGLFMSLFAVTATASAQTG; 1.73
MKKKQVMLALTAAAGLGLTALHSAPARKAAPL; 5.26
MSSCGGILIVCSLAAILLLIPSVSFAADS; 4.26

Please indicate AmyQ secretion efficiency recorded for MKVPKTMLLSTAAGLLLSLTATSASAHYV
5.6

Please indicate AmyQ secretion efficiency recorded for MNKFLKSNFRFLLAAALGISLLGESNPIKASND
1.52

Please indicate AmyQ secretion efficiency recorded for MYKKFVPFAVFLFLFFVSFEMMENPHALDY
7.08

Please indicate AmyQ secretion efficiency recorded for MKKWMALTSGLFLAAAVLLCLMVPQQIQGASS
4.17

Please indicate AmyQ secretion efficiency recorded for MRKKLKWLSFLLGFIILLFLFKYQFSPNDS
6.63

Please indicate AmyQ secretion efficiency recorded for MGLGKKLSVAVAASFMSLSISLPGVQSAEG
3.87

Please indicate AmyQ secretion efficiency recorded for MKSKWMSGLLLVAVGFSFTQVMVHCGET
4.81

Please indicate AmyQ secretion efficiency recorded for MGLGKKLSVAVAASFMSLSISLRKKVQAAEG
8.03

Please indicate AmyQ secretion efficiency recorded for MKKLLAAGIIGLLTVSIASPLFAAEK
3.02

Please indicate AmyQ secretion efficiency recorded for MKNMSCKLVVSVTLFFSFLTIGPLHHAQNS
5.75

----------
System: Bacillus subtilis DB104 (SP-AmyQ fusion secretion)
Experiment: AmyQ secretion efficiency, weighted average sort bin (1 = best secretion, 10 = worst) (bin number (weighted average, 1-10)); higher = lower secretion efficiency
Recorded AmyQ secretion efficiency determines the group label, using lowest (below 3), middle (3 to below 7), highest (7 or more)

Completed entries (count: 5):
MKKWMITIAMLILAGIALFVFIRKKRRLKSHKT; middle
MKLAKRVSALTPSTTLAITAKGKEL; highest
MKKWLKRKKSLAIAIVLFMYTKGEAKAAGM; highest
MRGKSIAVLLSLIMLIAGFLISFSFQM; middle
MRRYRKVLTMCFLGLILFVPTALADNS; lowest

Now take the following sequence into account.
Please indicate the class for MKSKWMSGLLLVAVGFSFTQVMVHADEE based on its AmyQ secretion efficiency.
middle

----------
Items are presented alongside their recorded AmyQ secretion efficiency.
System: Bacillus subtilis DB104 (SP-AmyQ fusion secretion)
Assay: AmyQ secretion efficiency, weighted average sort bin (1 = best secretion, 10 = worst) (bin number (weighted average, 1-10)); higher = lower secretion efficiency
Quick one: just the number, no unit, thanks!

Completed entries (count: 3):
MKRLFMKARRKKKAVVFVFAVKGAPAKAETH; 8.85
MGGGFSILIMMTGLLFGLTSPAFAAEK; 3.63
MNLRKILLSSALSLGMLPSAAPVLATSS; 2.71

Retrieve AmyQ secretion efficiency on Bacillus subtilis DB104 (SP-AmyQ fusion secretion); query MKSKGSIMACLILFSFTITTFINTETGSISAFSN
5.66

Retrieve AmyQ secretion efficiency on Bacillus subtilis DB104 (SP-AmyQ fusion secretion); query MGGGSFSIVFLILLLMLTLVVAPKEKAEAASS
1.53

Retrieve AmyQ secretion efficiency on Bacillus subtilis DB104 (SP-AmyQ fusion secretion); query MKKRLKRKRVLVPALIMSGITLIEANKK
6.77

Retrieve AmyQ secretion efficiency on Bacillus subtilis DB104 (SP-AmyQ fusion secretion); query MKVLLSALLLLLFAFEPSPSGKKL
6.9

Retrieve AmyQ secretion efficiency on Bacillus subtilis DB104 (SP-AmyQ fusion secretion); query MKKAKRKRLSVVLVTTVFLVKQQESVAQAKQL
5.44

Retrieve AmyQ secretion efficiency on Bacillus subtilis DB104 (SP-AmyQ fusion secretion); query MKKRLIAPMLLSAASLAFFAMSGSYQAAAY
6.45
